Each entry below carries its recorded Ki.
- experimental.system: human 5-HT3 receptor (Homo sapiens, UniProt P46098)
- Sequence (P46098 24-478): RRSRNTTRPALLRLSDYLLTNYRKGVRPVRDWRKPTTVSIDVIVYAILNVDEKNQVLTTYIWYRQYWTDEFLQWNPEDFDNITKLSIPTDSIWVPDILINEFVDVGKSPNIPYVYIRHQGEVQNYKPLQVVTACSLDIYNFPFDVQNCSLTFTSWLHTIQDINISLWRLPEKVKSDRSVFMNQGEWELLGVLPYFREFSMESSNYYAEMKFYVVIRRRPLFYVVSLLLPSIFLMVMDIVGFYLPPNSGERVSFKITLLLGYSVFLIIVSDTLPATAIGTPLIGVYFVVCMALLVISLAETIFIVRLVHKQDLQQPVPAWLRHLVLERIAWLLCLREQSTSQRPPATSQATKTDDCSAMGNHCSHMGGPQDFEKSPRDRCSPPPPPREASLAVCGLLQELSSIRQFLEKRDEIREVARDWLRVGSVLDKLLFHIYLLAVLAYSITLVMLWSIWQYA
- assay: Compound affinity for the human 5-HT3 receptor (Assay D), [3H]BRL 43694 radioligand binding, Cerep
- Parameters: host or cells: CHO cells
- protocol.conditions: Assay D; recombinant receptor in CHO cells, [3H]BRL 43694; Cheng-Prusoff; read-out: Human 5HT3 Ki
Where a name gives a salt, the structure may show the parent alone.
Give just the number in nM; leave the unit off.

Record excerpt, results attached:
compound: O=C(N[C@@H]1CN2CCC1CC2)c1cc(F)cc2oc(C3CC3)nc12 [Example 19, Hydrochloride]
reported.property: Ki
measured.result: 44
//
compound: CN1[C@@H]2CCC[C@H]1C[C@@H](NC(=O)c1cc(F)cc3oc(C4CC4)nc13)C2 [Example 20, Hydrochloride]
reported.property: Ki
measured.result: 5.4

Lab note: next compound to report on.
Enquiry: Return Ki measured with human 5-HT3 receptor (Homo sapiens, UniProt P46098) given this compound: O=C(N[C@@H]1CN2CCC1CC2)c1cccc2oc(Cc3ccccc3)nc12 [Example 10, Hydrochloride]
Return: 21

* * *

- experimental.system: UniProtKB P46098
- assay: Compound affinity for the human 5-HT3 receptor (Assay B), SPA radioligand binding with [9-methyl-3H]BRL-43694
- Set-up: purchased Perkin Elmer
Structures can show the parent of a compound that is named as a salt.
Ki by entry:

Some entries whose results are on file:
molecule: CN1[C@@H]2CCC[C@H]1C[C@@H](NC(=O)c1cccc3oc(CN4CCOCC4)nc13)C2 [Example 39, Hydrochloride]
Ki: 77.1 nM

molecule: CN1CCCCC1c1nc2c(C(=O)N[C@H]3C[C@H]4CCC[C@@H](C3)N4C)cccc2o1 (mixture of isomers) [Example 33, Hydrochloride]
Ki: 21.6 nM

molecule: CN1[C@@H]2CCC[C@H]1C[C@@H](NC(=O)c1cccc3oc(C4CCNCC4)nc13)C2 [Example 27, Dihydrochloride]
Ki: 41 nM

molecule: CN1CCC(c2nc3c(C(=O)N[C@@H]4CN5CCC4CC5)cccc3o2)CC1 [Example 30, Dihydrochloride Dihydrochloride]
Ki: 83 nM

molecule: CN1CCC(c2nc3c(C(=O)N[C@H]4C[C@H]5CCC[C@@H](C4)N5C)cccc3o2)CC1 [Example 29, Dihydrochloride]
Ki: 28 nM

molecule: O=C(NC1CC2CCCC(C1)N2)c1cccc2oc(C3CC3)nc12 (centres unmarked) [Example 36, Hydrochloride]
Ki: 6.3 nM

molecule: O=C(N[C@@H]1CN2CCC1CC2)c1cccc2oc(C3CC3)nc12
Ki: 11 nM

molecule: CCN(CC)Cc1nc2c(C(=O)N[C@H]3C[C@H]4CCC[C@@H](C3)N4C)cccc2o1 [Example 41, Hydrochloride]
Ki: 15.3 nM

Enquiry: Fill in: Ki of CN1C2COCC1CC(NC(=O)c1cccc3oc(C4CCCC4)nc13)C2 (centres unmarked) [Example 32, Hydrochloride] is ___
Return: 81.9 nM

Enquiry: Likewise for CN1[C@@H]2CCC[C@H]1C[C@@H](NC(=O)c1cccc3oc(C4CC4)nc13)C2 ?
Return: 4.1 nM

Enquiry: And C[C@H]1OC(=O)N(C)C1c1nc2c(C(=O)NC3CC4CCCC(C3)N4C)cccc2o1 (some centres unmarked) ?
Return: 24.9 nM
